Hey, just so you know, these numbers are from patent US11420973B2.

Study Target: UniProtKB Q9NR96
Experiment: TLR9 inhibition reporter assay (HEK-Blue SEAP reporter, ODN2006 stimulation)
Condition Description: read-out: TLR9 IC50; HEK-Blue cells overexpressing human TLR9, ODN2006 5 nM, SEAP reporter
Here the recorded IC50 is given for each entry.
Express the result in µM but write the number alone.

Consider the worked cases shown below.
{"Compound": "Cc1cc(-c2[nH]c3ccc(C(C)C(=O)NC4CCCC(N)C4)cc3c2C(C)C)ccn1 (centres unmarked) [Example 218]", "Output Unit": "µM", "Observed Result": 1.4}
{"Compound": "CCc1c(-c2ccc(OC)c(OC)c2)[nH]c2ccc(C(=O)NCCc3ccncc3)cc12", "Output Unit": "µM", "Observed Result": 19.9}

Name the recorded IC50 of the item CCc1c(-c2ccc(OC)c(OC)c2)[nH]c2ccc(C(=O)Nc3cnn(C4COC4)c3)cc12 in your answer.
37.4

Name the recorded IC50 of the item Cc1cc(-c2[nH]c3ccc(C(C)(C)C(=O)NC4CCCC(N)C4)cc3c2C(C)C)ccn1 (centres unmarked) in your answer.
2.67

* * *

Study Target: human TLR7 (Homo sapiens (Human))
Sequence (Q9NYK1 27-1049): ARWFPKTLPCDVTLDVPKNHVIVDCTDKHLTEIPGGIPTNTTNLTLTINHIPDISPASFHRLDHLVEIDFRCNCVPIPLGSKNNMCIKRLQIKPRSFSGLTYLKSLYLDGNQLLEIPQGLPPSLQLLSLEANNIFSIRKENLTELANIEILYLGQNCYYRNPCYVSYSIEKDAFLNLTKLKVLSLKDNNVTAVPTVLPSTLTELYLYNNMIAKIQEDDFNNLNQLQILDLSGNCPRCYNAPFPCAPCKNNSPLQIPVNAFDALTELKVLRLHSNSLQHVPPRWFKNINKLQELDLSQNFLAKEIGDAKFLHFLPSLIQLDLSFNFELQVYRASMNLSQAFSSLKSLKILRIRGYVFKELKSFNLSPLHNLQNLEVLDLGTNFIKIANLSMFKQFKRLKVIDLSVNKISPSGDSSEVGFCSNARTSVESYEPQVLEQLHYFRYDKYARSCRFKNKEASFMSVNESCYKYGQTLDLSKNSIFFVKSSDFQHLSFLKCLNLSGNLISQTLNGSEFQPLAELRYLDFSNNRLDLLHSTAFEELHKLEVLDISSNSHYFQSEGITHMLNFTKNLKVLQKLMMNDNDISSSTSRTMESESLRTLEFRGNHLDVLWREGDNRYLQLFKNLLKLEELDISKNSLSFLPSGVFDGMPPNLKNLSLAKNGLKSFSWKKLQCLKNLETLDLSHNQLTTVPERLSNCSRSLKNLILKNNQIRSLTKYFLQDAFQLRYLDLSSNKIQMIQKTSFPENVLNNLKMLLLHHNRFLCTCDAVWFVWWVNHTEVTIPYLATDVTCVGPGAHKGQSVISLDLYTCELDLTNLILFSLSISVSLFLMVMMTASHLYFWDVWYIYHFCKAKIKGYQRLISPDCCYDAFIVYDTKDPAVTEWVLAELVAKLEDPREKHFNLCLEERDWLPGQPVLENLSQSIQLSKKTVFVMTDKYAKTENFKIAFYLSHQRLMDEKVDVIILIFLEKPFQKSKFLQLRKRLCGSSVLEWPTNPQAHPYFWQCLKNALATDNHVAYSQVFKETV
Experiment: TLR7 inhibition reporter assay (HEK-Blue SEAP reporter, gardiquimod stimulation)
Type: cell-based
Condition Description: HEK-Blue cells overexpressing human TLR7, gardiquimod 7.5 μM
Endpoint Name: log10 of IC50 (log10 of the value in nM)
Each number you see is log10 of IC50, and the unit inside the log is nM.

Consider the worked cases shown below.
{"Compound": "Cc1cc(-c2[nH]c3ccc(C(C)C(=O)N4CCC5(CCN(C)C5)CC4)cc3c2C(C)C)ccn1 (stereo not shown)", "log10 of IC50": 1.66}
{"Compound": "Cc1cc(-c2[nH]c3ccc(C(C)C(=O)N(C)C4CCCNC4)cc3c2C(C)C)ccn1 (stereo not shown) [Example 210]", "log10 of IC50": 2.45}
{"Compound": "Cc1cc(-c2[nH]c3ccc(C(C)C(=O)N(C)C4CCCNC4)cc3c2C(C)C)ccn1 (stereo not shown) [Example 209]", "log10 of IC50": 2.01}
{"Compound": "Cc1cc(-c2[nH]c3ccc(C(C)(C)C(=O)N(C)C4CN5CCC4CC5)cc3c2C(C)C)ccn1 (stereo not shown)", "log10 of IC50": 1.38}
{"Compound": "CCc1c(-c2ccc(OC)c(OC)c2)[nH]c2ccc(C(=O)N3CC4CN(C(C)C)CC4C3)cc12 (stereo not shown)", "log10 of IC50": 2.62}
{"Compound": "CCc1c(-c2ccc(OC)c(OC)c2)[nH]c2ccc(C(=O)N3CCC(N4CCN(C)CC4)CC3)cc12", "log10 of IC50": 2.27}
{"Compound": "CCN(CC)C(=O)C1CCCN(CC(=O)N2CC3CN(C(=O)c4ccc5[nH]c(-c6ccc(OC)c(OC)c6)c(C(C)C)c5c4)CC3C2)C1 (single isomer, unassigned) [Example 11]", "log10 of IC50": 2.78}
{"Compound": "CCc1c(-c2ccc(OC)c(OC)c2)[nH]c2ccc(C(=O)N3CCN(C(C)C)CC3)cc12", "log10 of IC50": 2.48}
{"Compound": "CCc1c(-c2ccc(OC)c(OC)c2)[nH]c2ccc(C(=O)NCC(C)(C)CO)cc12", "log10 of IC50": 2.76}
{"Compound": "Cc1cc(-c2[nH]c3ccc(C(C)C(=O)N4CCCC5(CCCCC5N)C4)cc3c2C(C)C)ccn1 (stereo not shown)", "log10 of IC50": 1.87}

Name the recorded log10 of IC50 of the item CCc1c(-c2ccc(OC)c(OC)c2)[nH]c2ccc(C(=O)N3CCN(CCO)CC3)cc12 in your answer.
2.74

Name the recorded log10 of IC50 of the item Cc1cc(-c2[nH]c3ccc(C(=O)N(C)C4CCN(C)CC4)cc3c2C(C)C)cc(C)n1 in your answer.
0.28

Name the recorded log10 of IC50 of the item CCc1c(-c2ccc(OC)c(OC)c2)[nH]c2ccc(C(=O)N3CC[C@@H](N(C)C)C3)cc12 in your answer.
2.27

Name the recorded log10 of IC50 of the item Cc1cc(-c2[nH]c3ccc(C(C)C(=O)N4CCCC(CCN)C4)cc3c2C(C)C)ccn1 (stereo not shown) in your answer.
2.71

Name the recorded log10 of IC50 of the item Cc1cc(-c2[nH]c3ccc(C(C)C(=O)N[C@H]4CCNC4)cc3c2C(C)C)ccn1 (stereo partly shown) [Example 190] in your answer.
2.14

Name the recorded log10 of IC50 of the item Cc1cc(-c2[nH]c3ccc(C(C)C(=O)N(C)C4CN5CCC4CC5)cc3c2C(C)C)ccn1 (stereo not shown) in your answer.
1.70

Name the recorded log10 of IC50 of the item Cc1cc(-c2[nH]c3ccc(C(=O)N(C)CCO)cc3c2C(C)C)cc(C)n1 in your answer.
1.52

Name the recorded log10 of IC50 of the item CCc1c(-c2ccc(OC)c(OC)c2)[nH]c2ccc(C(=O)N3CCC(N4CCCCC4)CC3)cc12 in your answer.
2.05

Name the recorded log10 of IC50 of the item Cc1cc(-c2[nH]c3ccc(C(C)C(=O)NC4CCNCC4)cc3c2C(C)C)ccn1 (stereo not shown) in your answer.
2.31

Name the recorded log10 of IC50 of the item Cc1cc(-c2[nH]c3ccc(C(=O)N(C)Cc4cccnc4)cc3c2C(C)C)cc(C)n1 in your answer.
1.66

Name the recorded log10 of IC50 of the item Cc1cc(-c2[nH]c3ccc(C(=O)N4CC5CNCC5C4)cc3c2CC(F)F)cc(C)n1 (stereo not shown) in your answer.
3.35

Name the recorded log10 of IC50 of the item Cc1cc(-c2[nH]c3ccc(C(C)(C)C(=O)N[C@@H]4CCCC[C@H]4N)cc3c2C(C)C)ccn1 in your answer.
1.20

Name the recorded log10 of IC50 of the item Cc1cc(-c2[nH]c3ccc(C(C)(C)C(=O)N4CCCCC4C4CCNCC4)cc3c2C(C)C)ccn1 (stereo not shown) in your answer.
1.18

Name the recorded log10 of IC50 of the item CC(C)c1c(-c2ccnc(N)c2)[nH]c2ccc(C(=O)NC3CCC(N(C)C)CC3)cc12 (stereo not shown) in your answer.
3.02

Name the recorded log10 of IC50 of the item Cc1cc(-c2[nH]c3ccc(C(C)C(=O)NC4CCC(N)CC4)cc3c2C(C)C)ccn1 (stereo not shown) in your answer.
2.22

Name the recorded log10 of IC50 of the item Cc1cc(-c2[nH]c3ccc(C(C)(C)C(=O)N4CCCCC4CN)cc3c2C(C)C)ccn1 (stereo not shown) in your answer.
0.80

Name the recorded log10 of IC50 of the item CCc1c(-c2ccc(OC)c(OC)c2)[nH]c2ccc(C(=O)NCCCN3CCCCC3)cc12 in your answer.
2.41

Name the recorded log10 of IC50 of the item Cc1cc(-c2[nH]c3ccc(C(=O)NC4CCN(C(C)C)CC4)cc3c2CC(F)F)cc(C)n1 in your answer.
1.92

Name the recorded log10 of IC50 of the item Cc1cc(-c2[nH]c3ccc(C(C)(C)C(=O)NCC4CCNCC4)cc3c2C(C)C)ccn1 in your answer.
2.52

Name the recorded log10 of IC50 of the item COc1ccc(-c2[nH]c3ccc(C(=O)N4CC5CN(C(=O)CN(C)C)CC5C4)cc3c2C(C)C)cc1OC (stereo not shown) in your answer.
1.88

Name the recorded log10 of IC50 of the item Cc1cc(-c2[nH]c3ccc(C(C)(C)C(=O)NC4CCN(C5CCNC5)CC4)cc3c2C(C)C)ccn1 (stereo not shown) in your answer.
2.74

* * *

Study Target: human TLR9 (Homo sapiens (Human), UniProt Q9NR96)
Sequence (Q9NR96 26-1032): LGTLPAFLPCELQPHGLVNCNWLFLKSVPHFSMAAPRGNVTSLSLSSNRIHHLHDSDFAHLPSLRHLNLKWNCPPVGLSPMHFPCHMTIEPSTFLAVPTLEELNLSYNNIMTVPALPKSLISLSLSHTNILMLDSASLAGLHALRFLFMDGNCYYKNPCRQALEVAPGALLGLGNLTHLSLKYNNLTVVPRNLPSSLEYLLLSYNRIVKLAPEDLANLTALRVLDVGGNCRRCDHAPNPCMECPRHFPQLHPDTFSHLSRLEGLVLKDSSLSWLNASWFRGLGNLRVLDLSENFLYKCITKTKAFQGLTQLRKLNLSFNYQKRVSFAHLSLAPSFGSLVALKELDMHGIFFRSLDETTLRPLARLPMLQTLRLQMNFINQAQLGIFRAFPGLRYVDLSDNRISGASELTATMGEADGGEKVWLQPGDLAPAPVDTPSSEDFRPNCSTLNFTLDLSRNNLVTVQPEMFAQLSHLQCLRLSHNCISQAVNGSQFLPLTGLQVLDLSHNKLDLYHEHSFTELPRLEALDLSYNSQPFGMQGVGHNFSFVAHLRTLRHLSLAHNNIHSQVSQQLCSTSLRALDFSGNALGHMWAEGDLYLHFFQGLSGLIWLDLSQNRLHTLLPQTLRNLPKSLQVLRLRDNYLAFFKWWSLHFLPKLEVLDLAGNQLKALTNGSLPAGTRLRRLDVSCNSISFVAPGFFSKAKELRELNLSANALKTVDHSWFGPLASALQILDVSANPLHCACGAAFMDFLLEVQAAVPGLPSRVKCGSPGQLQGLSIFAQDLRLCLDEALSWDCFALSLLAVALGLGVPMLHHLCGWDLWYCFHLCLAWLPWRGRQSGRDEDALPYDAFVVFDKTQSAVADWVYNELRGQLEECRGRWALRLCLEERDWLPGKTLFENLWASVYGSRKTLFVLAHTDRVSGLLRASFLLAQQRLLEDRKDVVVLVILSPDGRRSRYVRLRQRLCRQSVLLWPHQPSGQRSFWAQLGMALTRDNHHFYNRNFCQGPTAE
Experiment: TLR9 inhibition reporter assay (HEK-Blue SEAP reporter, ODN2006 stimulation);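 also: SEAP reporter under IFN-β minimal promoter with five NF-κB and AP-1 sites, 22 h incubation, compounds 0.05 nM–50 µM, inhibition relative to agonist plus DMSO versus known inhibitor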
Condition Description: read-out: TLR9 IC50; HEK-Blue cells overexpressing human TLR9, ODN2006 5 nM, SEAP reporter
Endpoint Name: IC50 (nM)
Express the result in nM but write the number alone.

{"Molecule": "Cc1cc(-c2[nH]c3ccc(C(C)(C)C(=O)NC4CCC5CNCC54)cc3c2C(C)C)ccn1 (stereo not shown) [Example 146]", "Output Unit": "nM", "Observed Result": 979}

Name the recorded IC50 of the item Cc1cc(-c2[nH]c3ccc(C(C)C(=O)N[C@@H]4CCCC[C@H]4N)cc3c2C(C)C)ccn1 (stereo partly shown) [Example 215] in your answer.
1370

Name the recorded IC50 of the item Cc1cc(-c2[nH]c3ccc(C(C)(C)C(=O)N4CCNCC4)cc3c2C(C)C)ccn1 in your answer.
1010

Name the recorded IC50 of the item Cc1cc(-c2[nH]c3ccc(C(C)(C)C(=O)N(C)C4CCCNC4)cc3c2C(C)C)ccn1 (stereo not shown) in your answer.
1740

Name the recorded IC50 of the item CCc1c(-c2ccc(OC)c(OC)c2)[nH]c2ccc(C(=O)N3CCN(CCN4CCOCC4)CC3)cc12 in your answer.
9670

Name the recorded IC50 of the item COc1ccc(-c2[nH]c3ccc(C(=O)N4C[C@@H]5C[C@H]4CN5)cc3c2C(C)C)cc1OC in your answer.
1380

Name the recorded IC50 of the item Cc1cc(-c2[nH]c3ccc(C(C)C(=O)NC4CCC5CNCC54)cc3c2C(C)C)ccn1 (stereo not shown) [Example 187] in your answer.
1350
